Assay: Pharmacokinetic and tissue distribution study
Format: in vivo, CD-1 male mice
Settings: male, CD-1, mouse; mice, 20 mg/kg PO; intestine
readout label: Cmax

Query string: // query Cmax value for entry `COc1cc(Nc2nccc(Nc3cccnc3-c3ccccn3)n2)ccc1N1CCN(C)CC1`
Result string: 20200 ng/g

* * *

Assay: Pharmacokinetics and relative bioavailability after a single oral dose (two liquid formulations, powder in capsule)
Type: in vivo, male Beagle dogs
Conditions: male, Beagle, dog, plasma, po, 5 mg/kg, Powder in Capsule (Table 45), 5 mg/kg oral, male Beagle dogs, Mean
readout label: half-life (h)
Only the number, expressed in h, is required.

Query string: Query (compound): `COc1cc(Nc2nccc(Nc3cccnc3-c3ccccn3)n2)ccc1N1CCN(C)CC1` ; field requested: half-life
Result string: 3.1

* * *

Assay: Pharmacokinetics and relative bioavailability after a single oral dose (two liquid formulations, powder in capsule)
Type: in vivo, male Beagle dogs
Details: male, Beagle, dog, plasma, po, 5 mg/kg, Powder in Capsule (Table 45), 5 mg/kg oral, male Beagle dogs, plasma, Mean; read-out: CL/F (converted)
readout label: CL/F (mL/min/kg)
Return type: number; implicit unit mL/min/kg.

Query string: CL/F lookup needed for `COc1cc(Nc2nccc(Nc3cccnc3-c3ccccn3)n2)ccc1N1CCN(C)CC1` , thanks.
Result string: 550

* * *

Assay: Pharmacokinetic and tissue distribution study
Format: in vivo, CD-1 male mice
Conditions: male, CD-1, mouse; mice, 20 mg/kg PO; brain
readout label: Cmax (ng/g)
Report as a plain number; the unit ng/g is understood.

Query string: I'd like to know its Cmax. The compound in question is COc1cc(Nc2nccc(Nc3cccnc3-c3ccccn3)n2)ccc1N1CCN(C)CC1 [Compound 2]
Result string: 1690

* * *

Assay: Pharmacokinetic and tissue distribution study
Type: in vivo, CD-1 male mice
Conditions: male, CD-1, mouse; mice, 20 mg/kg PO; bone marrow
readout label: AUC(0-t) (ng·h/mL)
Numbers only; they are read as ng·h/mL.

Query string: Give its AUC(0-t) value. Item: `COc1cc(Nc2nccc(Nc3cccnc3-c3ccccn3)n2)ccc1N1CCN(C)CC1`
Result string: 1940

* * *

Test: Pharmacokinetic and tissue distribution study
Assay type: in vivo, CD-1 male mice
Details: male, CD-1, mouse; mice, 20 mg/kg PO; kidney
readout label: Cmax (ng/g)
Number only, in ng/g; omit the unit.

Query string: Recorded Cmax for COc1cc(Nc2nccc(Nc3cccnc3-c3ccccn3)n2)ccc1N1CCN(C)CC1 [Compound 2] , please?
Result string: 31100

* * *

Assay: Pharmacokinetics and relative bioavailability after a single oral dose (two liquid formulations, powder in capsule)
Type: in vivo, male Beagle dogs
Conditions: male, Beagle, dog, plasma, po, 2 mg/kg, Formulation #2 (Table 44), 2 mg/kg oral, male Beagle dogs, Mean
readout label: Tmax (h)
The reply should be a number in h, with the unit left off.

Query string: Looking for the measured Tmax of COc1cc(Nc2nccc(Nc3cccnc3-c3ccccn3)n2)ccc1N1CCN(C)CC1 [Compound 2] , can you help?
Result string: 4.7

* * *

Assay: Preliminary brain PK study
Assay type: in vivo
Conditions: mouse, mice, brain tissue, Table 4, route and dose not given
readout label: half-life (h)
Response body: numeric value in h, unit text excluded.

Query string: Which half-life value is on record for `COc1cc(Nc2nccc(Nc3cccnc3-c3ccccn3)n2)ccc1N1CCN(C)CC1` ?
Result string: 1.23

* * *

Assay: Pharmacokinetic and tissue distribution study
Format: in vivo, CD-1 male mice
Conditions: male, CD-1, mouse; mice, 20 mg/kg PO; adrenals
readout label: Cmax (ng/g)
Quick reminder: number only, in ng/g, skip the unit.

Query string: Return reported Cmax; argument: `COc1cc(Nc2nccc(Nc3cccnc3-c3ccccn3)n2)ccc1N1CCN(C)CC1`
Result string: 13800

* * *

Test: Pharmacokinetic and tissue distribution study
Assay type: in vivo, CD-1 male mice
Settings: male, CD-1, mouse; mice, 20 mg/kg PO; bladder
readout label: Tmax (h)
Provide only the numeric value, understood in h.

Query string: What measured Tmax goes with `COc1cc(Nc2nccc(Nc3cccnc3-c3ccccn3)n2)ccc1N1CCN(C)CC1` ?
Result string: 3

* * *

Experiment: Pharmacokinetics and relative bioavailability after a single oral dose (two liquid formulations, powder in capsule)
Assay type: in vivo, male Beagle dogs
Conditions: male, Beagle, dog, plasma, po, 5 mg/kg, Formulation #2 (Table 44), 5 mg/kg oral, male Beagle dogs, Mean
readout label: Tmax (h)
The answer is to be given in h; state only the numeric part.

Query string: Item `COc1cc(Nc2nccc(Nc3cccnc3-c3ccccn3)n2)ccc1N1CCN(C)CC1` has what recorded Tmax?
Result string: 3.7

* * *

Assay: Pharmacokinetics and relative bioavailability after a single oral dose (two liquid formulations, powder in capsule)
Type: in vivo, male Beagle dogs
Conditions: male, Beagle, dog, plasma, po, 2 mg/kg, Formulation #2 (Table 44), 2 mg/kg oral, male Beagle dogs, plasma, Mean; read-out: CL/F (converted)
readout label: CL/F (mL/min/kg)
// note: answer is a bare numeric in mL/min/kg

Query string: Need CL/F, item `COc1cc(Nc2nccc(Nc3cccnc3-c3ccccn3)n2)ccc1N1CCN(C)CC1`
Result string: 400

* * *

Assay: Approximate solubility of freebase in 12 solvents at RT
Type: physicochemical
Settings: organic solvent or mixture, thermodynamic from solid, EtOH
readout label: solubility

Query string: Item under review: COc1cc(Nc2nccc(Nc3cccnc3-c3ccccn3)n2)ccc1N1CCN(C)CC1 [Freebase Form A] . Reported solubility?
Result string: 2100 to 4200 µg/mL

* * *

Assay: Pharmacokinetics and relative bioavailability after a single oral dose (two liquid formulations, powder in capsule)
Assay type: in vivo, male Beagle dogs
Details: male, Beagle, dog, plasma, po, 5 mg/kg, Formulation #2 (Table 44), 5 mg/kg oral, male Beagle dogs, Mean
readout label: half-life (h)
API: value field is a number in h; no unit string.

Query string: Fill blank: measured half-life of the compound `COc1cc(Nc2nccc(Nc3cccnc3-c3ccccn3)n2)ccc1N1CCN(C)CC1` is ____.
Result string: 4.9

* * *

Experiment: Pharmacokinetic and tissue distribution study
Type: in vivo, CD-1 male mice
Conditions: male, CD-1, mouse; mice, 20 mg/kg PO; pancreas
readout label: Cmax (ng/g)
Give your result in ng/g as a bare value.

Query string: Please look up its Cmax: `COc1cc(Nc2nccc(Nc3cccnc3-c3ccccn3)n2)ccc1N1CCN(C)CC1`
Result string: 10600

* * *

Test: Pharmacokinetics and relative bioavailability after a single oral dose (two liquid formulations, powder in capsule)
Type: in vivo, male Beagle dogs
Conditions: male, Beagle, dog, plasma, po, 2 mg/kg, Formulation #1 (Table 43), 2 mg/kg oral, male Beagle dogs, plasma, Mean; read-out: AUC0-TLast
readout label: AUC(0-t) (ng·h/mL)
Quick reminder: number only, in ng·h/mL, skip the unit.

Query string: Consider the compound `COc1cc(Nc2nccc(Nc3cccnc3-c3ccccn3)n2)ccc1N1CCN(C)CC1` and give its measured AUC(0-t).
Result string: 70

* * *

Test: Pharmacokinetics and relative bioavailability after a single oral dose (two liquid formulations, powder in capsule)
Assay type: in vivo, male Beagle dogs
Details: male, Beagle, dog, plasma, po, 2 mg/kg, Formulation #2 (Table 44), 2 mg/kg oral, male Beagle dogs, plasma, Mean; read-out: AUC0-TLast
readout label: AUC(0-t)

Query string: What value of measured AUC(0-t) is listed for `COc1cc(Nc2nccc(Nc3cccnc3-c3ccccn3)n2)ccc1N1CCN(C)CC1` ?
Result string: 102 ng·h/mL

* * *

Assay: Pharmacokinetics and relative bioavailability after a single oral dose (two liquid formulations, powder in capsule)
Type: in vivo, male Beagle dogs
Conditions: male, Beagle, dog, plasma, po, 2 mg/kg, Formulation #2 (Table 44), 2 mg/kg oral, male Beagle dogs, Mean
Description: The purpose of the study is to dose two suspension formulations of Compound 2 at two dose levels by gavage to Beagle dogs and to collect blood samples for the determination of plasma concentrations, derivation of pharmacokinetic parameters and to determine the relative bioavailability of the two suspension formulations. […]
readout label: half-life (h)
Report the value in h with no unit label.

Query string: Which half-life value is on record for `COc1cc(Nc2nccc(Nc3cccnc3-c3ccccn3)n2)ccc1N1CCN(C)CC1` ?
Result string: 4.7

* * *

Assay: Pharmacokinetics and relative bioavailability after a single oral dose (two liquid formulations, powder in capsule)
Assay type: in vivo, male Beagle dogs
Conditions: male, Beagle, dog, plasma, po, 2 mg/kg, Powder in Capsule (Table 45), 2 mg/kg oral, male Beagle dogs, Mean
readout label: AUC(0-inf) (ng·h/mL)
I only need the number, in ng·h/mL, no unit after it.

Query string: State the recorded AUC(0-inf) for this entry: `COc1cc(Nc2nccc(Nc3cccnc3-c3ccccn3)n2)ccc1N1CCN(C)CC1`
Result string: 90

* * *

Target: ACVR1 R206H (Homo sapiens, UniProt Q04771, R206H)
Sequence (Q04771 21-509 R206H): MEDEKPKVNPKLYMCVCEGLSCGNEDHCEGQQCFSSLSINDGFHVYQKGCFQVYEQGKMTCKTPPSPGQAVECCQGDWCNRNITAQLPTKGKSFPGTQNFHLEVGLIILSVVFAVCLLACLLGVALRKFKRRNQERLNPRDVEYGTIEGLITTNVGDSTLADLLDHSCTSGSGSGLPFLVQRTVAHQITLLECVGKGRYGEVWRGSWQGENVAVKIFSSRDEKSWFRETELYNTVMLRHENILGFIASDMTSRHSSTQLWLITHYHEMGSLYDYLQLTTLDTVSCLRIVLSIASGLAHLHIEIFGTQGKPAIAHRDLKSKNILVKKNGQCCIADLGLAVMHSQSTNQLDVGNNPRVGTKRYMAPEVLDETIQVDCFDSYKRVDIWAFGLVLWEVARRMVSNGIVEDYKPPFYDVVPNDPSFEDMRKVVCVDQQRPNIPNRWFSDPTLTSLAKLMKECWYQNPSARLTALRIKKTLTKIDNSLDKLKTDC
Assay: ACVR1 kinase assay, casein substrate, 33P-ATP, filter binding
Conditions: 10 μM ATP
readout label: pIC50
pIC50 here is simply -log10 of the concentration when that concentration is written in mol/L.

Query string: Given the compound `COc1cc(Nc2nccc(Nc3cccnc3-c3ccccn3)n2)ccc1N1CCN(C)CC1` , what is its reported pIC50?
Result string: 8.42
